Where do these numbers come from? They come from ChEMBL document CHEMBL1136059.

target: Prostaglandin G/H synthase 1 (Homo sapiens, UniProt P23219); assay: In vitro inhibition of cyclooxygenase-1 via inhibition of TXB2 generation in the presence of 1 uM arachidonic acid in human platelet; type: functional
Sequence (P23219 whole entry): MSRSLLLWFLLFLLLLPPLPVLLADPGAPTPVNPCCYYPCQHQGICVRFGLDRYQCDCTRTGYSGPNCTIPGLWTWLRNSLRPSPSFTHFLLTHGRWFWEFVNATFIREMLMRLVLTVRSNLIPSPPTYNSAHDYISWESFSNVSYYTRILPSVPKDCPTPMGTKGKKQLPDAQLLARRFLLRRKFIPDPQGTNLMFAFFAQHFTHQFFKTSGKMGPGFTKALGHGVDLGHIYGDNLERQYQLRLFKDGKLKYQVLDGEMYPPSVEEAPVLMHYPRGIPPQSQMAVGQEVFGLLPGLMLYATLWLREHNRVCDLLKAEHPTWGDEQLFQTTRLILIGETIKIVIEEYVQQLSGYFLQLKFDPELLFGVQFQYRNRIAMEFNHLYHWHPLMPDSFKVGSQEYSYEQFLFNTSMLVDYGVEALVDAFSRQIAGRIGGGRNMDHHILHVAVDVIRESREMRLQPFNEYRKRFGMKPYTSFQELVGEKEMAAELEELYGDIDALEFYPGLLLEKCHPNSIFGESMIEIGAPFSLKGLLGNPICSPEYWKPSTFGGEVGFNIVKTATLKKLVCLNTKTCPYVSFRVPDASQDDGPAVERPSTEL
MEASURE_NAME: IC50 (nM)
Number only, in nM; omit the unit.

stdin: Reported IC50 for `CCc1cc(/C=C/C(N)=O)cc(C(=O)c2ccccc2)c1` : what is it?
stdout: 74

###

biological target: Prostaglandin G/H synthase 1 (Homo sapiens); type: functional
MEASURE_NAME: pIC50
Please report pIC50 as the negative decimal logarithm of the molar concentration, giving only the number.

stdin: Reported pIC50 for `N#Cc1cc(/C=C/S(N)(=O)=O)cc(C(=O)c2ccccc2)c1` : what is it?
stdout: 5.77

stdin: # repeat for `CC(=O)c1cc(/C=C/S(N)(=O)=O)cc(C(=O)c2ccccc2)c1`
stdout: 5.19

stdin: # repeat for `CCc1ccc(/C=C/S(N)(=O)=O)cc1C(=O)c1ccccc1`
stdout: 6.70

stdin: # repeat for `CC(C)=Cc1cc(/C=C/S(N)(=O)=O)cc(C(=O)c2ccccc2)c1`
stdout: 5.44

stdin: # repeat for `NS(=O)(=O)/C=C/c1cc(CO)cc(C(=O)c2ccccc2)c1`
stdout: 5.27

stdin: # repeat for `CCc1cc(/C=C/S(N)(=O)=O)cc(C(=O)c2ccccc2)c1`
stdout: 4.74
